- Protocol details: Solubility in aqueous ammonium hydroxide buffer
- Assay type: physicochemical
- Experimental parameters: water containing 0.1 vol % ammonium hydroxide, water containing 0.1% by volume ammonium hydroxide
Where a SMILES comes first, the peptide text is derived from it. The star is where a group is joined. Palmitoyl = CCCCCCCCCCCCCCCC(=O)*
Listing of recorded solubility by entry.

Any idea what its solubility is? The compound is CCCCCCCCCCCCCCCC(=O)N[C@@H](CO)C(=O)N[C@@H](CC(C)C)C(=O)N[C@@H](CO)C(=O)N[C@@H](CC(C)C)C(=O)N[C@@H](C)C(=O)N[C@@H](C)C(=O)N[C@@H](C)C(=O)N[C@@H](CCC(=O)O)C(=O)N[C@@H](CCC(=O)O)C(=O)N[C@H](C(=O)N[C@@H](CCCCN)C(=O)N[C@H](C(=O)N[C@@H](C)C(=O)N[C@H](C(=O)O)C(C)C)C(C)C)[C@@H](C)CC [SEQ ID NO:2] (Palmitoyl-SLSLAAAEEIKVAV-OH)
> 20 mg/mL

Any idea what its solubility is? The compound is CCCCCCCCCCCCCCCC(=O)N[C@@H](CO)C(=O)N[C@@H](CC(C)C)C(=O)N[C@@H](CO)C(=O)N[C@@H](CC(C)C)C(=O)N[C@@H](C)C(=O)N[C@@H](C)C(=O)N[C@@H](C)C(=O)N[C@@H](CC(=O)O)C(=O)N[C@H](C(=O)N[C@@H](CCCCN)C(=O)N[C@H](C(=O)N[C@@H](C)C(=O)N[C@H](C(=O)O)C(C)C)C(C)C)[C@@H](C)CC [SEQ ID NO:4] (Palmitoyl-SLSLAAADIKVAV-OH)
> 20 mg/mL

Any idea what its solubility is? The compound is CCCCCCCCCCCCCCCC(=O)N[C@@H](CO)C(=O)N[C@@H](CC(C)C)C(=O)N[C@@H](CO)C(=O)N[C@@H](CC(C)C)C(=O)N[C@@H](C)C(=O)N[C@@H](C)C(=O)N[C@@H](C)C(=O)N[C@@H](CCC(=O)O)C(=O)N[C@H](C(=O)N[C@@H](CCCCN)C(=O)N[C@H](C(=O)N[C@@H](C)C(=O)N[C@H](C(=O)O)C(C)C)C(C)C)[C@@H](C)CC [SEQ ID NO:6, reference compound] (Palmitoyl-SLSLAAAEIKVAV-OH)
< 1 mg/mL
